pIC50: −log10 of the molar value.
// GST-tagged SIK1 (Homo sapiens (Human), UniProt P57059) pIC50 records

| MOL SMILES | pIC50 |
| --- | --- |
| COc1cc(-c2c3c(C(F)F)cc(-c4cnn(C[C@H](C)O)c4)cc3nn2C)cc(OC(F)F)c1C(=O)N1CC(O)(C(F)F)C1 | 8.07 |
| COc1cc(-c2c3c(OCc4nnc(C)o4)cc(-c4cnn(C)c4)cc3nn2C)cc(OC(F)F)c1C(=O)N1CC(O)(C(F)(F)F)C1 | 8.04 |
| COc1cc(-c2c3c(C#N)cc(-c4cc(C)ns4)cc3nn2C)cc(OC(F)F)c1C(=O)N[C@@H]1C[C@@H]1F | 7.77 |
| COc1cc(-c2c3c(C#N)cc(-c4cnn(C)c4)cc3nn2C)cc(OC(F)F)c1C(=O)N1CC(O)(C(F)(F)F)C1 | 7.77 |
| COc1cc(-c2c3c(C(F)F)cc(-c4cnn(C)c4)cc3nn2C)cc(OC(F)F)c1C(=O)N[C@@H]1C[C@@H]1F | 8.12 |
| COc1cc(-c2c3c(C(F)F)cc(-c4cnn(CC5(O)CCC5)c4)cc3nn2C)cc(OC(F)F)c1C(=O)N[C@@H]1CC1(F)F | 7.90 |
